src = patent US9586931B2

# TARGET OR SYSTEM: recombinant human GST-Syk (Homo sapiens, UniProt P43405)
# Construct: purchased Carna Biosciences 08-176
# METHOD SUMMARY: Homogeneous Time-Resolved Fluorescence (HTRF) assay for the recombinant human Syk enzyme
# Type: biochemical
# MEASUREMENT PARAMETERS: recombinant human GST-Syk 5 pM, ATP 25 μM, 10-dose titration 10 μM to 0.508 nM; read-out: rhSYK Activity IC50
Lab note: compare IC50 with 30 nM, writing Yes if less and No if equal or more.

Input line: hey, is IC50 for Cc1cc(Nc2cc(C(F)(F)F)ccn2)nc(-c2cn(C(C)C(=O)N3CCc4onc(-c5ccc(F)cc5)c4C3)nn2)c1 (centres unmarked) [Example 1.39] lower than 30 nM or not?
Output line: No

Input line: hey, is IC50 for Cc1cc(Nc2nccc(C(F)(F)F)n2)cc(-c2cn(C[C@@H](C)CO)nn2)c1 [Example 5.73] lower than 30 nM or not?
Output line: No

Input line: hey, is IC50 for Cc1cc(Nc2cc(C(F)(F)F)ccn2)nc(-c2cn(CC(O)CF)nn2)c1 (racemic) [Example 5.93] lower than 30 nM or not?
Output line: Yes

Input line: hey, is IC50 for Cc1cc(Nc2cc(C(F)(F)F)ccn2)nc(-c2cn(C3CCC(C(N)=O)c4ccccc43)nn2)c1 (centres unmarked) [Example 1.11] lower than 30 nM or not?
Output line: Yes

Input line: hey, is IC50 for Cc1cc(Nc2cc(C(F)F)ccn2)nc(-c2cn(CC3CNC(=O)O3)nn2)c1 (single isomer, unassigned) [Example 7.13] lower than 30 nM or not?
Output line: Yes

Input line: hey, is IC50 for Cc1cc(Nc2cc(C(F)(F)F)ccn2)nc(-c2cn(CC(C)(C)O)nn2)c1 [Example 5.97] lower than 30 nM or not?
Output line: Yes

Input line: hey, is IC50 for Cc1cc(Nc2nccc(C(F)F)n2)cc(-c2cn(C(C)C3CNC(=O)O3)nn2)c1 (single isomer, unassigned) [Example 7.2] lower than 30 nM or not?
Output line: Yes

Input line: hey, is IC50 for Cc1cc(Nc2cc(C(F)(F)F)ccn2)nc(-c2cn(C(C)C(=O)NCCc3ccccc3Oc3ccccc3)nn2)c1 (centres unmarked) [Example 1.42] lower than 30 nM or not?
Output line: No

Input line: hey, is IC50 for Cc1cc(Nc2nccc(C(F)(F)F)n2)cc(-c2cn(C[C@@]3(O)CC[C@H](C(=O)O)C(C)(C)C3)nn2)c1 (racemic) [Example 4.1] lower than 30 nM or not?
Output line: No

Input line: hey, is IC50 for Cc1cc(Nc2cc(C(F)(F)F)ccn2)nc(-c2cn(C(C)C(=O)NCCc3ccc4ccccc4c3)nn2)c1 (centres unmarked) [Example 1.32] lower than 30 nM or not?
Output line: No

Input line: hey, is IC50 for Cc1cc(Nc2cc(C(F)(F)F)ccn2)nc(-c2cn(C(C)C(=O)N3CCc4[nH]c5c(Cl)cccc5c4C3)nn2)c1 (centres unmarked) [Example 1.41] lower than 30 nM or not?
Output line: No

Input line: hey, is IC50 for Cc1cc(Nc2cc(C(F)(F)F)ccn2)nc(-c2cn(C(CO)c3ccc(C(N)=O)cc3)nn2)c1 (centres unmarked) [Example 1.9] lower than 30 nM or not?
Output line: Yes

Input line: hey, is IC50 for Cc1cc(Nc2cc(OC3CCOC3)ccn2)nc(-c2cn(C(C)c3ccc(C(=O)O)cc3)nn2)c1 (centres unmarked) [Example 2.5] lower than 30 nM or not?
Output line: No
